Entry source: BindingDB's records for doi:10.1124/jpet.105.085829

Target Entity: Sodium-dependent dopamine transporter (Rattus norvegicus)
Sequence (P23977 whole entry): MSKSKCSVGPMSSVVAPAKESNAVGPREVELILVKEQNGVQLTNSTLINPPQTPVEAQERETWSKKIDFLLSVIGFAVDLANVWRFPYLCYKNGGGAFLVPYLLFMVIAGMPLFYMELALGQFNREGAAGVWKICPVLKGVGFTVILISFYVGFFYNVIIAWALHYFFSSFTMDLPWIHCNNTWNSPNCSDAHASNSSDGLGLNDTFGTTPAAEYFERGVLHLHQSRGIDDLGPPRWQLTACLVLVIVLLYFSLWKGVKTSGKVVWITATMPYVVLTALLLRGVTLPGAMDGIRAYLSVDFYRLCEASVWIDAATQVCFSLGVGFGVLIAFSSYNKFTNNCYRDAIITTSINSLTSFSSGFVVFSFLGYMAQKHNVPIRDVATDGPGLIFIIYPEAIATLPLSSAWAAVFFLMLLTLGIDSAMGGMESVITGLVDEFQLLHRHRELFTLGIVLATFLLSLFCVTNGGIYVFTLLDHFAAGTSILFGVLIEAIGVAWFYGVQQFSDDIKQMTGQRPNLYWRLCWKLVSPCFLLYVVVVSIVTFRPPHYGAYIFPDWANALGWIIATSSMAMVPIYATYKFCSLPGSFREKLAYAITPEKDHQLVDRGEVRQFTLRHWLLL
pKi: −log10 of the molar value.
Property Measured: pKi

Query: # query: pKi of entry O=CN1C2CCC1CC(OC(c1ccc(F)cc1)c1ccc(F)cc1)C2 (stereo unspecified)
Reply: < 5.00
